# IC50 measurements, system: human CB2 receptor (Homo sapiens (Human))
# Sequence (P34972 whole entry): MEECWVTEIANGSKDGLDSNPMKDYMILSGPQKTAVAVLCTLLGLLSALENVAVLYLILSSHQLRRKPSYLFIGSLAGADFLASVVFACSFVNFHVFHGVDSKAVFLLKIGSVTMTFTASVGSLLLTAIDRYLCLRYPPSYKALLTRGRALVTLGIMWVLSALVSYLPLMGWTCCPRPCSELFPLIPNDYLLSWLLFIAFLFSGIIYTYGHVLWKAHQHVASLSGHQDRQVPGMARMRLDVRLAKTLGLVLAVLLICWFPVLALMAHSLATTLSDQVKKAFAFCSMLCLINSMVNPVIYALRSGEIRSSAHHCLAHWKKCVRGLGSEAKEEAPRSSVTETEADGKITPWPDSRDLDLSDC

Molecule: CCCCC/C=C\C=C\CCCCCCCCC(=O)NCC(Cc1c[nH]cn1)C(=O)O (stereo not shown) [Compound 9]
IC50 [µM]: 38

Molecule: CCCCCC/C=C/C=C/CCCCCCCC(=O)NCCC(=O)O [Compound 3]
IC50 [µM]: 26

Molecule: CCCCCC/C=C/C=C/CCCCCCCC(=O)NC(CC(=O)O)Cc1c[nH]cn1 (stereo not shown) [Compound 10]
IC50 [µM]: 38

Molecule: CCCCC/C=C\C=C\CCCCCCCCC(=O)NCCC(=O)O [Compound 4]
IC50 [µM]: 26
